- assayedSystem: T1, MTH1203 (Methanothermobacter thermautotrophicus …, UniProt O27271 1-636)
- T1 sequence: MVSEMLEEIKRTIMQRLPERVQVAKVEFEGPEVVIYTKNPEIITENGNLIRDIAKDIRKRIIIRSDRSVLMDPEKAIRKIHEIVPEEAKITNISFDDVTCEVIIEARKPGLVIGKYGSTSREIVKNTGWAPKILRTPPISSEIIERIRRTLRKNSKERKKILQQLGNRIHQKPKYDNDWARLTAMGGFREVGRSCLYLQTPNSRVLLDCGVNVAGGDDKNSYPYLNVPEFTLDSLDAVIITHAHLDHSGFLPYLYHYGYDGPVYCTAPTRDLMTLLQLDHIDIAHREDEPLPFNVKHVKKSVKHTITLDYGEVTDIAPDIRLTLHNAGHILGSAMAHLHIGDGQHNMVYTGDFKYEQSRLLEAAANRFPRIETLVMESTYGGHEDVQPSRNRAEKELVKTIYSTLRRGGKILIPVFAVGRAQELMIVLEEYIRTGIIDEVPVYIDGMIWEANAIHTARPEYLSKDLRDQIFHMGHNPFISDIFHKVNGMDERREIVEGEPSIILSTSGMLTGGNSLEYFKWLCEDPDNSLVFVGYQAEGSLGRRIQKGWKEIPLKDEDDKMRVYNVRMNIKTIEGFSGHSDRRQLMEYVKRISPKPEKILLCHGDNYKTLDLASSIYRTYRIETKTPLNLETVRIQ
- testSummary: fluorescence anisotropy; 20 mM Tris pH 8.0, 1 M NaCl, 5 nM 5'-fluorescein RNA; temperature not stated
- conditionNotes: protein: recombinant; tags: His-tag (His-tagged construct used in titrations); label: 5' fluorescein; single strand
assayMetric: Kd
State the value with its unit after it.

## Task What measured Kd goes with UUUUUUU (ssRNA) [U7] ?
## Result 9.2 µM
